These entries and their values trace back to ChEMBL document CHEMBL3507680.

PROTOCOL DETAILS: Human HepG2 cell viability assay in 384 well format
Type: toxicity, cell-based
Set-up: dose 125 nL, time 70.5 hour; concentration not given beside the values
CONDITION LABEL: HepG2 cells, read-out: Inhibition
Recorded cytotoxicity at 70.5 h by entry
PARAMETER: cytotoxicity at 70.5 h (%)

>>> quantitative_readout("NS(=O)(=O)Cc1ccc(CNc2cncc(-n3cccn3)n2)cc1")
-14
>>> quantitative_readout("Fc1ccc(CN2CCC3(CC2)CCN(Cc2nccs2)CC3)cc1")
1.45
>>> quantitative_readout("Cn1cnnc1S(=O)(=O)C1CCN(C(=O)c2cccs2)CC1")
-10.5
>>> quantitative_readout("Cc1cc(-c2cc(N)c(=O)n(CC(=O)NC3CCCCC3)n2)c(C)o1")
-15.5
>>> quantitative_readout("Cc1ccc(N2CCCC(N3CCC(N(C)C)CC3)C2=O)cc1 (centres undefined)")
13.2
>>> quantitative_readout("CC[C@@H]1N(Cc2ccc(C)o2)CCC[C@]12CCC(=O)N2CCOC")
16.8
>>> quantitative_readout("Cc1ccc(CN2CCC3(CC2)CC(N2CCN(C)CC2)CO3)s1 (centres undefined)")
-9.14
>>> quantitative_readout("Cn1cnnc1CNC(=O)CCCOc1ccccc1Cl")
-14.3
>>> quantitative_readout("CCc1nc(CN2CCCN(C(=O)CCSC)CC2)cs1")
-15.8
>>> quantitative_readout("CNC(=O)c1nn(C)cc1NC(=O)C(C)n1ncc(Cl)c1C (centres undefined)")
-6.57
>>> quantitative_readout("Cc1cc(C(=O)N2CCN(C(=O)CC(C)C)[C@@H]3CS(=O)(=O)C[C@@H]32)no1")
-11.9
>>> quantitative_readout("O=C(NC[C@H]1OC[C@@H](NC2COC2)[C@@H]1O)c1cccs1")
-15.7
>>> quantitative_readout("Cc1cnn(C2CCCN(C(=O)c3cn4ccccc4n3)C2)c1 (centres undefined)")
17.4
>>> quantitative_readout("COCCCC(=O)Nc1cc(Cl)c(Cl)cn1")
24.5
>>> quantitative_readout("CC(C)(C)C1CCC(O)(CNC(=O)CCS(C)(=O)=O)CC1 (centres undefined)")
-4.23
>>> quantitative_readout("CC(C)N(Cc1ccc(C#N)cc1)C(=O)Nc1ccccn1")
-7.3
>>> quantitative_readout("CSc1ccc(CN2CCn3nc(CNC(C)=O)cc3C2)cc1")
-28.8
>>> quantitative_readout("Cc1cnn(CCNCCCOc2ccc(C#N)cc2)c1")
3.37
>>> quantitative_readout("CCOC(=O)c1cnn(-c2cc(Oc3cc(C)ccc3C)ncn2)c1N")
-0.831
>>> quantitative_readout("CC(C)n1cc(CN2CCCN(C(=O)COC3CCCC3)CC2)cn1")
1.39
>>> quantitative_readout("Cc1[nH]ncc1CCCNC(=O)N1CCOC(C)C1 (centres undefined)")
-5.97
>>> quantitative_readout("CN1CCC(N2CCC(c3ccccc3C(=O)O)C2)CC1 (centres undefined)")
-0.525
>>> quantitative_readout("O=C(O)[C@H]1OCC(=O)N(Cc2cccc(F)c2)[C@@H]1c1ccc(Cl)cc1")
-9.16
>>> quantitative_readout("Cc1ccc(C)c(S(=O)(=O)NC(=O)COc2cccc(C#N)c2)c1")
-2.88

====

PROTOCOL DETAILS: Human HepG2 cell viability assay in 384 well format
Format: toxicity, cell-based
Set-up: dose 125 nL, time 70.5 hour; concentration not given beside the values
CONDITION LABEL: HepG2 cells, read-out: Inhibition
Recorded cytotoxicity at 70.5 h by entry
PARAMETER: cytotoxicity at 70.5 h (%)

>>> quantitative_readout("COc1ccc(-n2ncc(C(C)NC3CCSCC3)c2C)cc1 (stereo unspecified)")
-4.41
>>> quantitative_readout("Cc1nn(C)c2nc(N(Cc3ccncc3)CC3CCCO3)sc12 (stereo unspecified)")
-5.1
>>> quantitative_readout("COCC(NC(=O)NCc1cccc(Cl)c1)c1ccco1 (stereo unspecified)")
-5.77
>>> quantitative_readout("CCN1CCCC(C)(C(=O)NCCc2nnc(C)[nH]2)C1 (stereo unspecified)")
-3.07
>>> quantitative_readout("COCC(O)CN1CCC(NC(=O)c2cccc(C)c2)CC1 (stereo unspecified)")
-2.52
>>> quantitative_readout("FC(F)(F)c1cc(NCCn2ncnn2)nc(-c2cccnc2)n1")
-9.6

====

Recorded cytotoxicity at 70.5 h by entry
PROTOCOL DETAILS: Human HepG2 cell viability assay in 384 well format
Assay type: toxicity, cell-based
Parameters: dose 125 nL, time 70.5 hour; concentration not given beside the values
CONDITION LABEL: HepG2 cells, read-out: Inhibition
PARAMETER: cytotoxicity at 70.5 h (%)

>>> quantitative_readout("COc1ccc(C(CC(=O)NCc2n[nH]c(N)n2)c2ccccc2)cc1 (stereo unspecified)")
-4.65
>>> quantitative_readout("COc1ccc(Cn2cc(C(=O)N(C)CCN(C)C)nn2)cc1")
-15
>>> quantitative_readout("Cc1ccc(S(=O)(=O)NC(=O)CCC2CCCO2)cc1 (stereo unspecified)")
0.693
>>> quantitative_readout("Cc1ccc(C(=O)N2C[C@H]3CCC[C@@]3(COCc3cccnc3)C2)s1")
-12
>>> quantitative_readout("CCn1ncc2c1C(COCC1CC1)N(Cc1cnn(C)c1)CC2 (stereo unspecified)")
-3.67
>>> quantitative_readout("CN1CC(NC(=O)Nc2cnn(-c3ccccc3Cl)c2)CCC1=O (stereo unspecified)")
-3.58

====

Recorded cytotoxicity at 70.5 h by entry
PROTOCOL DETAILS: Human HepG2 cell viability assay in 384 well format
Assay type: toxicity, cell-based
Set-up: dose 125 nL, time 70.5 hour; concentration not given beside the values
CONDITION LABEL: HepG2 cells, read-out: Inhibition
PARAMETER: cytotoxicity at 70.5 h (%)

>>> quantitative_readout("O=C1CN(c2ccc(CNC(=O)c3cccnc3O)cc2F)CCN1")
-2.79
>>> quantitative_readout("Cc1cc(C(=O)N2CCCC(n3cncn3)C2)no1 (stereo not drawn)")
-0.711
>>> quantitative_readout("CCc1cc(NCCc2cc(F)cc(F)c2)n2nccc2n1")
-2.57
>>> quantitative_readout("Cc1cnn(CCNCc2c(C)nn(C)c2Cl)c1")
-4.35
>>> quantitative_readout("COc1cc(CNCCc2nc(C)cs2)cc2c1OCCO2")
-0.752
>>> quantitative_readout("Cc1cccc(CN2CCc3ncnc(N4CCCC4)c3CC2)n1")
-2.78
>>> quantitative_readout("CN(CC(=O)NCC(F)(F)F)Cc1cccc2c1OCCO2")
14.8
>>> quantitative_readout("COc1ncccc1CNCc1c(C)nn(C)c1N(C)C")
19.7
>>> quantitative_readout("Cc1cnc(N2CC(C(=O)N3CCOCC3)C3(CCOCC3)C2)nc1 (stereo not drawn)")
-3.59
>>> quantitative_readout("Cc1cccc2[nH]c(C3CCCN3Cc3ccc(CO)o3)nc12 (stereo not drawn)")
-9.7
>>> quantitative_readout("COc1cccc(NC(=O)N2CC[C@@H]3CN(C)S(=O)(=O)[C@@H]3CC2)c1")
20.9
>>> quantitative_readout("COc1ccc(CC2(CO)CCN(c3cc(C(N)=O)ccn3)CC2)cc1")
-2.15
>>> quantitative_readout("COCCN1CCC2(CC1)CCN(Cc1ccccn1)CC2")
-1.25
>>> quantitative_readout("O=C1CC(NS(=O)(=O)N2CCOCC2)CN1Cc1ccc(F)cc1 (stereo not drawn)")
-2.75
>>> quantitative_readout("COc1ccc(-c2cccc(CC3(C(=O)O)CCOCC3)c2)cc1")
-4.34
>>> quantitative_readout("CCN(CC)C(=O)CSc1sc2c(O)cc(=O)[nH]c2c1C(N)=O")
-14.3
>>> quantitative_readout("O=c1nc(SCc2cccnc2)c2c(n1CCO)CCC2")
-7.99
>>> quantitative_readout("CCN(CC)c1ccc(C(=O)NCC2(C(N)=O)CCOCC2)cn1")
-4.92
>>> quantitative_readout("CCC(C)NC(=O)CS(=O)(=O)Cc1cc(C)ccc1C (stereo not drawn)")
-11.2
>>> quantitative_readout("Cc1noc(C)c1CN1C[C@@H]2COC[C@H](C(=O)N3CCCCO3)[C@@H]2C1")
-13
>>> quantitative_readout("COc1ccc(C(C)NCc2c[nH]nc2C)cc1OC (stereo not drawn)")
-8.7
>>> quantitative_readout("Cc1nn(-c2ccc(C(=O)O)cc2)c2c1C(C(C)C)SCC(=O)N2 (stereo not drawn)")
-2.14
>>> quantitative_readout("COCCOCC(=O)N1CCC2(CCCN(C3CCOCC3)C2=O)C1 (stereo not drawn)")
11.4
>>> quantitative_readout("COc1ccc2c(OCC(=O)NC(C)(C)C)ccnc2c1")
-18.7
>>> quantitative_readout("O=c1c2ccc(C(F)(F)F)cc2ncn1CCCN1CCCCC1CO (stereo not drawn)")
14.6
>>> quantitative_readout("O=C(Cn1cccc2cc(-c3ccc(F)cc3)nc1-2)N1CCC(O)CC1")
3.41
>>> quantitative_readout("CN(CC(F)(F)F)C(=O)CNC(=O)Cc1ccccc1O")
5.05
>>> quantitative_readout("COCCN1CCN(c2ccc3ccc(C(=O)NC4CC4)cn23)CC1")
-2.48
>>> quantitative_readout("COC(=O)CN(C(=O)c1ccoc1)c1cccc(F)c1")
-8.55
>>> quantitative_readout("COc1ccccc1C(NCc1ccc(SC)cc1)c1nccn1C (stereo not drawn)")
11.2
>>> quantitative_readout("CCN(CC)C(CNC(=O)c1cccnc1-n1cncn1)c1ccsc1 (stereo not drawn)")
-7.63
>>> quantitative_readout("c1cncc(COC[C@@H]2CCC[C@@]23CNCCO3)c1")
8.38
>>> quantitative_readout("N#Cc1cccc(CS(=O)(=O)NCC(O)Cc2ccccc2)c1 (stereo not drawn)")
-0.967
>>> quantitative_readout("CC(O)(CNC(=O)c1c(F)cccc1Cl)C1CC1 (stereo not drawn)")
-14.4
>>> quantitative_readout("CC(C)c1cc(COCCC(=O)O)no1")
-6.18
>>> quantitative_readout("Cn1cc(NC(=O)CNC(=O)N2CCN(c3ccc(Cl)cc3)CC2)cn1")
-5.62
>>> quantitative_readout("CSCCC(=O)N1CCC(Oc2cc(C)ccc2F)(C(=O)O)CC1")
-7.4
>>> quantitative_readout("c1ccc2[nH]c(C3CCN(Cc4nnc(C5CC5)o4)CC3)nc2c1")
-5.81
>>> quantitative_readout("Cc1nn(C)c(N(C)C)c1CNCc1cccc(Cn2cncn2)c1")
-3.12
>>> quantitative_readout("c1cncc(CN2CCCC3(COCCN(c4cnccn4)C3)C2)c1 (stereo not drawn)")
-5.18
>>> quantitative_readout("CC(C)c1nccn1-c1nccnc1C1CCCN1Cc1cccnc1 (stereo not drawn)")
-1.81
>>> quantitative_readout("Cc1nnc(CSCc2ccc(OCC(F)(F)F)nc2)o1")
-4.42
>>> quantitative_readout("CCn1cc(C(=O)n2nc(C)cc2C)c(S(=O)(=O)N2CCCCC2)n1")
-3.56
>>> quantitative_readout("COC(=O)CN1CCC(C(=O)c2cc(F)ccc2F)CC1")
-3.39
>>> quantitative_readout("Cc1cc(N2CCC3(CCCN(CCO)C3=O)C2)nc(C)c1C#N (stereo not drawn)")
-18.8
>>> quantitative_readout("Cc1ccc(NS(=O)(=O)c2cc3c(c(C(=O)O)c2)OCCO3)cc1C")
-5.96
>>> quantitative_readout("COc1ncccc1C(=O)N1CC[C@H]2C[C@H](c3ccncn3)O[C@@H]2C1")
-14.1
>>> quantitative_readout("CN(Cc1ccco1)C(=O)CN1CCOC(Cn2cccn2)C1 (stereo not drawn)")
-1.5
